These data points were gathered from PubChem BioAssay (NCI).

Test system: HL-60(TB) leukemia
Experiment: NCI tumour cell line growth inhibition, 48 h; in the data active = GI50 below about 0.43 µM; inactive = the rest
Result category, one only: active, inactive

Record excerpt, results attached:
Please share the test call associated with COc1cc2c(cc1-c1c(C)noc1C)ncc1[nH]c(=O)n([C@H](C)c3ccccn3)c12 .
active

Please share the test call associated with O=C(Nc1ccc([N+](=O)[O-])cc1)c1cc2ccccc2cc1O .
active

Please share the test call associated with CO[C@H]1/C=C/C[C@H](C)[C@@H](C)S(=O)(=O)NC(=O)c2ccc3c(c2)N(C[C@@H]2CC[C@H]21)C[C@@]1(CCCc2cc(Cl)ccc21)CO3 .
active

Please share the test call associated with C=CC1=C(C)C(Cc2[nH]c(/C=c3\[nH]/c(=C/C4=NC(=O)C(C)/C4=C\C)c(C)c3CCC(=O)O)c(CCC(=O)OC)c2C)NC1=O (stereo not drawn) .
inactive

Please share the test call associated with CCNC(=O)CCCCC(=O)c1c(C)[nH]c(/C=C2\N=C(c3ccc[nH]3)C=C2OC)c1C .
inactive

Please share the test call associated with C=C(CN(CCN1CCOCC1)CC(=C)c1ccc(C(=O)Nc2ccccc2N)cc1)c1ccc(C(=O)Nc2ccccc2N)cc1 .
inactive

New cases:
Please share the test call associated with Cc1cc(Cl)ccc1Nc1nc(C(F)(F)F)ccc1C(=O)N/N=C/c1ccc(N(C)C)cc1 .
inactive

Please share the test call associated with c1ccc([P+](CCC[P+](c2ccccc2)(c2ccccc2)c2ccccc2)(c2ccccc2)c2ccccc2)cc1 .
inactive

====

System: HCT-116 colon
Assay: NCI tumour cell line growth inhibition, 48 h
Kindly state GI50 for each of the entries shown.

Name the recorded GI50 for CC(C)[C@H](O)C(=O)N[C@H]1Cc2ccc3c(c2)[C@]24C5=C(N=C(O5)[C@H](C(C)C)NC1=O)c1nc(Cl)c(o1)-c1c(Cl)[nH]c5cccc(c15)-c1cccc2c1N[C@H]4O3 .
< 1 nM

Name the recorded GI50 for C=C1C(=O)O[C@H]2[C@H]1CC/C(COC(=O)NCc1cccc(OC)c1)=C\CC[C@@]1(C)O[C@@H]21 .
1270 nM

Would you be so kind as to report GI50 for each listed record?
1. CCOC(=O)c1cn2ncnc(Oc3ccc(NC(=O)NCCN(CC)CC)c(Cl)c3)c2c1C
2. c1ccc([P+](CCC[P+](c2ccccc2)(c2ccccc2)c2ccccc2)(c2ccccc2)c2ccccc2)cc1
3. CO[C@H]1/C=C/C[C@H](C)[C@@H](C)S(=O)(=O)NC(=O)c2ccc3c(c2)N(C[C@@H]2CC[C@H]21)C[C@@]1(CCCc2cc(Cl)ccc21)CO3

1: 2000 nM; 2: 7270 nM; 3: 2750 nM

====

Tested on: XF 498 CNS
Test: NCI tumour cell line growth inhibition, 48 h
Kindly state TGI for each of the entries shown.
One number for each entry, in µM.

Name the recorded TGI for CCC[CH2][Sn]1([CH2]CCC)[O]CC([CH2][Sn]([c]2ccccc2)([c]2ccccc2)[c]2ccccc2)[O]1 (stereo not given) .
28.6

Now look at this one.
Name the recorded TGI for CCN1CCC(O)(c2ccc(Cl)c(Cl)c2)C(C(=O)c2ccc(Cl)c(Cl)c2)C1 (stereo not given) .
34.4

====

System: NCI-H460 lung
quantity: GI50

Answered examples (2):
Write down the reported GI50 of CN(C)S(=O)(=O)c1cccc(-c2nc3sc4c(c3c(=O)[nH]2)CCCC4)c1 , test system: NCI-H460 lung.
0.931 µM

Write down the reported GI50 of CCOC(=O)c1cn2ncnc(Oc3ccc(NC(=O)NCCN(CC)CC)c(Cl)c3)c2c1C , test system: NCI-H460 lung.
9.1 µM

New cases:
Write down the reported GI50 of CCN1CCN(c2nc(C)cc(N(CCCNc3ccnc4cc(Cl)ccc34)Cc3ccco3)n2)CC1 , test system: NCI-H460 lung.
3.73 µM

====

Kindly state TGI for each of the entries shown.
System: KM12 colon
Experiment: NCI tumour cell line growth inhibition, 48 h

Name the recorded TGI for S=C1NC2=C(COC/C2=C\c2ccccc2Cl)C(c2ccccc2Cl)N1 (stereo not given) .
28.6 µM

Would you be so kind as to report TGI for each listed record?
1. O=C1C(Cl)=C(Nc2ccc3c(c2NC2=C(Cl)C(=O)c4ccccc4C2=O)C(=O)c2ccccc2C3=O)C(=O)c2ccccc21
2. N#CNc1nc(C(=O)Nc2ccc(Cl)cc2)cc(-c2ccccc2)n1
3. C=C(C)C(=O)N1c2ccc(OC)cc2CC1C(=O)OCC (stereo not given)
4. CCOC(=O)CC(=Nc1cc(C)on1)N(CC)CC
5. C[N+](C)(N)Cc1csc(-c2ccc(Cl)cc2)n1
6. CC(Nc1cc(=O)n(C)c(=O)[nH]1)c1ccccc1 (stereo not given)
7. Cc1ccc(C(=O)Nc2ccccc2C(=O)N/N=C(\c2ccccc2)c2ccccn2)cc1

["15 µM", "> 100 µM", "> 100 µM", "> 100 µM", "> 100 µM", "> 100 µM", "> 100 µM"]

Would you be so kind as to report TGI for each listed record?
1. O=C(OCc1c(-c2ccccc2)nn(-c2ccccc2)c1COC(=O)Oc1ccccc1)Oc1ccccc1
2. CCN(CC)CCNC(=O)c1cc2cc(NC(=O)c3cc4cc(NC(=O)c5cc6cc([N+](=O)[O-])ccc6[nH]5)ccc4[nH]3)ccc2[nH]1

1. > 100 µM
2. > 100 µM

====

System: SW-620 colon
Assay: NCI tumour cell line growth inhibition, 48 h
quantity: TGI

Answered examples (6):
Write down the reported TGI of O=C(O)CCc1nc(-c2ccccc2)c(-c2ccccc2)o1 , test system: SW-620 colon.
> 100 µM

Write down the reported TGI of Oc1cccc2nc3cc(CN4CCOCC4)c(CN4CCOCC4)cc3nc12 , test system: SW-620 colon.
> 100 µM

Write down the reported TGI of O=C(Nn1c2c(sc1=NC1CC1)C(=O)c1ccccc1C2=O)c1cc2ccc1CCc1ccc(cc1)CC2 , test system: SW-620 colon.
4.32 µM

Write down the reported TGI of C[C@@H]1CCC2[C@@H](C)[C@H](OC(=O)CCC(=O)NCCNC(=O)Cc3cc(=O)oc4cc(N(C)C)ccc34)O[C@@H]3O[C@]4(C)CC[C@@H]1C23OO4 (stereo partly drawn) , test system: SW-620 colon.
20.8 µM

Write down the reported TGI of CCCCCCCCCCOC1C(C(C)OCCCN(C)C)OC2OC3(CCCCC3)OC21 (stereo not drawn) , test system: SW-620 colon.
27.1 µM

Write down the reported TGI of ClC1=C(Cl)C(Cl)=C(Cl)C1=Cc1ccc(Cl)cc1Cl , test system: SW-620 colon.
0.717 µM

Would you be so kind as to report TGI for each listed record?
1. CCCCCCCCCCCCCCCCCCNC(=S)/N=C/c1c(O)cc(C)oc1=O
2. O=C(O)C1(CC(CCCN2CCCCC2)c2ccccc2)CCCC1 (stereo not drawn)
3. CCOC(=O)C1CCn2c(nc3c(=O)n(C)c(=O)n(C)c32)S1 (stereo not drawn)
4. COc1ccc2c(c1)-c1c(c3ccccc3n1CCN1CCOCC1)CC2
5. CCc1ccccc1NC(=O)C1=C(C)NC(C)=C(C(=O)Nc2ccccc2CC)C1c1ccc(NC(C)=O)cc1
6. CC(C)c1ccc(O)c(O)c(=O)c1 (tested in a mixture with another compound)
7. CN(C)NC(=S)NC12CC3CC(CC(C3)C1)C2
8. C=C(C)C1CCC2(CO)C(O)CC3(C)C(CCC4C5(C)CCC(O)C(C)(C)C5CCC43C)C12 (stereo not drawn)

96 µM
> 100 µM
> 100 µM
> 100 µM
> 100 µM
> 100 µM
> 100 µM
> 100 µM

Would you be so kind as to report TGI for each listed record?
1. CCC(c1nc2ccccc2c(=O)n1NC(=O)C(C)(C)C)C1(O)CCCCC1 (stereo not drawn)
2. O=C(/C=C/c1ccsc1)c1ccc(Cl)s1
3. Cc1ccc(-c2nc3n(c2/C=N\N=C(N)N)CCS3)cc1
4. CC(=O)[CH-]C(=O)c1ccccc1.CC(=O)[CH-]C(=O)c1ccccc1.CC[O-].O=C1C=C([O-])C(=O)c2ccccc21.[Ti+4]

["> 100 µM", "55.5 µM", "30.8 µM", "> 100 µM"]

====

Tested on: LOX IMVI melanoma
Experiment: NCI tumour cell line growth inhibition, 48 h
quantity: TGI (µM)
Numbers only, in µM.

Answered examples (3):
Name the recorded TGI for O=C1c2c(O)cccc2C(C(=O)CCCC(=O)C2c3cccc(O)c3C(=O)c3c(O)cccc32)c2cccc(O)c21 .
1.8

Name the recorded TGI for C=C(C)C1CCC2(CO)C(O)CC3(C)C(CCC4C5(C)CCC(O)C(C)(C)C5CCC43C)C12 (centres undefined) .
24.2

Name the recorded TGI for ClC1=C(Cl)C(Cl)=C(Cl)C1=Cc1ccc(Cl)cc1Cl .
0.384

Now look at this one.
Name the recorded TGI for CCNC(=O)CCCCC(=O)c1c(C)[nH]c(/C=C2\N=C(c3ccc[nH]3)C=C2OC)c1C .
3.65
